- assayed_target: T1, Homo sapiens factor Bb protein (human, UniProt P00751 260-764)
- T1 construct: Bought from CompTech (A155); also called complement factor Bb; human factor Bb
- T1 sequence (P00751 260-764 limits assumed): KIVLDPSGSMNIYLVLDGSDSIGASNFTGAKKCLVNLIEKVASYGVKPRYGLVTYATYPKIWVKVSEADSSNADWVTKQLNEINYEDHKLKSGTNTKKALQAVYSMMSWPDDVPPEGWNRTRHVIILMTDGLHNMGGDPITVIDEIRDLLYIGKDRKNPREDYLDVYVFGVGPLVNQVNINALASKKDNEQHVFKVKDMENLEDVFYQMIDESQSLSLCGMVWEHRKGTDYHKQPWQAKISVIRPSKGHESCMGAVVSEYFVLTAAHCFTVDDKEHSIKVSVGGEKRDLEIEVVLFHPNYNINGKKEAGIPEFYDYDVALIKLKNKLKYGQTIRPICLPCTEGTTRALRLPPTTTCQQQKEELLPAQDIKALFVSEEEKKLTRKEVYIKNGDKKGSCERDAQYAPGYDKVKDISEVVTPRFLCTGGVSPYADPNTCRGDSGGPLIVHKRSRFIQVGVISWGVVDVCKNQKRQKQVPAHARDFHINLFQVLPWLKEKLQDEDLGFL
- method_description: competition ELISA on coated factor Bb; competitor murine parental antibody
measure_name: pIC50
Reminder that pIC50 is minus the log10 of a molar concentration.

{"binder": "VH0/Vκ0 (Chimeric) (antibody, V domains shown, also called chimeric antibody) VH: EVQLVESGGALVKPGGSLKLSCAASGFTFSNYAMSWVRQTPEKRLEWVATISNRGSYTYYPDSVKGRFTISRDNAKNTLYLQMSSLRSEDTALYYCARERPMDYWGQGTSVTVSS VL: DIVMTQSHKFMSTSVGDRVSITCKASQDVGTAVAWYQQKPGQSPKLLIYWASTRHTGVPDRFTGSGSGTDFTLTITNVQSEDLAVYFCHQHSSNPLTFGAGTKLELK", "pIC50": 8.91}

Any idea what pIC50 was measured for VH4/Vκ7 (antibody, V domains shown, Redesigned variant; cloned into the appropriate expression vector (IgG4v1 and kappa were used in the first round)) VH: EVQLVESGGGLVKPGGSLRLSCAASGFTFSNYAMSWVRQAPGKRLEWVATISNRGSYTYYPDSVKGRFTISRDNAKNSLYLQMSSLRSEDTALYYCARERPMDYWGQGTSVTVSS VL: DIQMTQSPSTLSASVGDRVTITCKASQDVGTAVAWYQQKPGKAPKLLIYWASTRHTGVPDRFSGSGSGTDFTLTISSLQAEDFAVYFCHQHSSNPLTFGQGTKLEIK ?
9.12

Any idea what pIC50 was measured for VH7/Vκ7 (antibody, V domains shown, Redesigned variant; cloned into the appropriate expression vector (IgG4v1 and kappa were used in the first round); also called VH7/VκK7) VH: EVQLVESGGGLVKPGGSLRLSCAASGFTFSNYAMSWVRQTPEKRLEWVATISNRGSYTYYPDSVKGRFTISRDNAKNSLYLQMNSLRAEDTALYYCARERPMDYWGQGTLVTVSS VL: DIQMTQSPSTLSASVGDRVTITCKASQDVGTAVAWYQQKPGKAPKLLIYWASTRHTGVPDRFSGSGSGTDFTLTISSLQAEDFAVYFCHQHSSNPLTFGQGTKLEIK ?
8.84

Any idea what pIC50 was measured for VH6/Vκ6 (antibody, V domains shown, Redesigned variant; cloned into the appropriate expression vector (IgG4v1 and kappa were used in the first round)) VH: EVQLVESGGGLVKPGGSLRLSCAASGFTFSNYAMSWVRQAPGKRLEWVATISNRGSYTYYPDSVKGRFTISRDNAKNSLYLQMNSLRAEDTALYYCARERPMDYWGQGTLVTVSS VL: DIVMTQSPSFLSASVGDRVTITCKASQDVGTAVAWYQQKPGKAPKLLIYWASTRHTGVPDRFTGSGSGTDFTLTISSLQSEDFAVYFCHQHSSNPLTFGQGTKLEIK ?
9.03
